Source: PubChem BioAssay (NCATS)

Tested on: CP237
experimental protocol: qHTS profiling for inhibitors of Plasmodium falciparum proliferation (AID 504749); also: potency is read from the fitted curve at half-maximal effect; nearly all actives have a fitted effect of over 60% in size
test parameters: P. falciparum in erythrocytes, SYBR Green DNA, 72 h; series mostly up to 28.7 µM
Records with an inconclusive call do not appear. The source made the active and inactive calls. Calls follow the shape of the dose curve; as a rule, active = well fitted inhibition curve with a large enough effect; inconclusive = small, poorly fitted or top-dose-only effect; inactive = flat fitted curve, though single readings scatter.
Listing: Potency of selected molecules

Query: Entry CC(NCCC(c1ccccc1)c1ccccc1)c1ccccc1 (centres undefined) has what Potency?
Result: 10 µM (active)

Query: Queued: `CCCCCCCCCCCCCCCC[N+](C)(C)Cc1ccccc1`
Result: 3.55 µM (active)

Query: CN1CCCN(C(c2ccccc2)c2ccc(Cl)cc2)CC1 (centres undefined) , same question.
Result: 11.2 µM (active)

Then there is this molecule:
Query: Return reported Potency; argument: `Nc1c2ccccc2nc2ccccc12`
Result: 8.91 µM (active)
